Target: T1, cynomolgus monkey transferrin receptor 1 (cTfR1) (cynomolgus monkey (Macaca fascicularis), UniProt Q5RDH6 89-760 (Pongo abelii entry), limits assumed)
T1 construct: Recombinant cynomolgus TfR1; also called cyTfR1; cyno TfR1
T1 chain: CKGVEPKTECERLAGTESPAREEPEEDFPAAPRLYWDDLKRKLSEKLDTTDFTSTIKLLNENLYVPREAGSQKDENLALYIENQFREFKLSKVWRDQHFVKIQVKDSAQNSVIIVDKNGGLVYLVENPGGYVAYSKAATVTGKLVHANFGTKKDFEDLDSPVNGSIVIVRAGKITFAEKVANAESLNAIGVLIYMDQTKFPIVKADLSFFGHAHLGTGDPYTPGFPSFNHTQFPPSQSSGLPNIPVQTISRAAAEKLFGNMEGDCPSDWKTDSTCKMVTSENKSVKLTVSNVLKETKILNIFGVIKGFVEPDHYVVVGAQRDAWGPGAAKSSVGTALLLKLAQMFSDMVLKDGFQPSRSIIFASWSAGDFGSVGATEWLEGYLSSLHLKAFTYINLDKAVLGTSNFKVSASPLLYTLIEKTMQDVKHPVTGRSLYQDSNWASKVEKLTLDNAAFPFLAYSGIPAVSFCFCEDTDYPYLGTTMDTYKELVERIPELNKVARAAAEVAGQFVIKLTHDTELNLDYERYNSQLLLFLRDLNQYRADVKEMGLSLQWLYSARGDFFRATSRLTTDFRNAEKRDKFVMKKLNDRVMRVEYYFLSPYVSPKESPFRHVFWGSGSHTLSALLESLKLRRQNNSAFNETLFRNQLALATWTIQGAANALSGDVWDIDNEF
Experiment: ELISA, cyno TfR1, Fab, day 0 of thermal stability test
Classify as follows. Reported Binding affinity cyno TfR1 d 0 greater than or equal to 10 nM: Yes. Reported Binding affinity cyno TfR1 d 0 below: No.

Some solved cases for reference:
binder: humanized anti-TfR Fab 3A4 VH3 (N54T)/Vk4 (Fab, V domains shown) VH: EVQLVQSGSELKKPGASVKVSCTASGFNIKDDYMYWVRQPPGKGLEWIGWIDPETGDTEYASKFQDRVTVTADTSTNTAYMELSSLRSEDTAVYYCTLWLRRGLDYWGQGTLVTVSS VL: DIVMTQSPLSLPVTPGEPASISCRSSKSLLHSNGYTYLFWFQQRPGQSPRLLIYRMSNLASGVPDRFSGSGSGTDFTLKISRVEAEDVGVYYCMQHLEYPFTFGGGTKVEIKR
discreteLabel: Yes
--
binder: humanized anti-TfR Fab 3M12 VH4/Vk3 (Fab, V domains shown) VH: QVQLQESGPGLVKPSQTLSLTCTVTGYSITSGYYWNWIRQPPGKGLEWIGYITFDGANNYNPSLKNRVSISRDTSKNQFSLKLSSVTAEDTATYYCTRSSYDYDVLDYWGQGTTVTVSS VL: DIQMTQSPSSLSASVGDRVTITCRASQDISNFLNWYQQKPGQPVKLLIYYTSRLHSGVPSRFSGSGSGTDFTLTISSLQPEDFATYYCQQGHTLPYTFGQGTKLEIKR
discreteLabel: No
--
binder: humanized anti-TfR Fab 5H12 VH5 (C33D)/Vk4 (Fab, V domains shown) VH: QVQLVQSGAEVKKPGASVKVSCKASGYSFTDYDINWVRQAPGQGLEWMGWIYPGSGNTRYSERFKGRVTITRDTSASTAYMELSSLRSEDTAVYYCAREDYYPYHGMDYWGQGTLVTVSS VL: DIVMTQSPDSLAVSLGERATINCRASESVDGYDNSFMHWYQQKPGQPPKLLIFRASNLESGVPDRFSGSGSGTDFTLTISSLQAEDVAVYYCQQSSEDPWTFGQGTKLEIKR
discreteLabel: No

Kindly review the next binder as well.
In: API: above_or_equal(metric=Binding affinity cyno TfR1 d 0, cutoff=10 nM) for item humanized anti-TfR Fab 3M12 VH3/Vk3 (Fab, V domains shown) VH: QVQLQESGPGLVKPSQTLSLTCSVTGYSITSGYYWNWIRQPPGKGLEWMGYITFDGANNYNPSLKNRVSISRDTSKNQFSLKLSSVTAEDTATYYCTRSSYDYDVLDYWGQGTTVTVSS VL: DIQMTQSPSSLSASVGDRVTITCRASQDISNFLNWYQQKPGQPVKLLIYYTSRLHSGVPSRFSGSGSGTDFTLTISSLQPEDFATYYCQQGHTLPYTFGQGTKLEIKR
Out: No
